Tested on: BT-549 breast
Assay: NCI tumour cell line growth inhibition, 48 h
Quick rule: TGI of at least 20 µM means yes, below that means no.

| compound | class |
| --- | --- |
| CC1(C)N=C(N)N=C(N)N1c1ccc(CCC(=O)Nc2ccc(S(=O)(=O)F)cc2)c(Cl)c1 | yes |
| Cc1ccc(C2(O)CSC(=NC34CC5CC(CC(C5)C3)C4)N2C(P(=O)(O)O)P(=O)(O)O)cc1 (stereo not drawn) | yes |
| CCOP(=Nc1ccc(N(C)C)cc1)(OCC)OCC | yes |
| C=CC[C@]1(/C=N/O)CN(S(=O)(=O)CC[Si](C)(C)C)C[C@H]2CC=CC[C@H]21 | yes |
| CN(C)CCC(=O)N1C/C(=C\c2ccc(Cl)c(Cl)c2)C(=O)/C(=C/c2ccc(Cl)c(Cl)c2)C1 | no |
| Cc1cc(C)nc(NS(=O)(=O)c2ccc(Nc3c4ccccc4nc4ccc(C(=O)Nc5ccc(S(N)(=O)=O)cc5)cc34)cc2)n1 | yes |
| Cc1cc(C)c2c(=O)cc(-c3cccc4ccccc34)[nH]c2n1 | yes |
| Oc1ccc2ccccc2c1N=Nc1cccc2ccccc12 | yes |
| C#CC1(O)C(COP(=O)(O)OCC(COP(=O)(O)OCC2OC(n3cc(F)c(=O)[nH]c3=O)CC2O)OCCCCCCCCCCCCCCCCCC)OC(n2ccc(N)nc2=O)C1O (stereo not drawn) | no |
| COc1cc2c(cc1OCCCCCCCCCCN1C(=O)c3cccc4cccc(c34)C1=O)N=C[C@@H]1CCCN1C2=O | yes |
| Cn1c(Cl)c(/C=C2/C(=O)Nc3ccccc32)c2ccccc21 | no |
| CCOc1cccc(/C=N/NC(=O)c2cccc(Nc3ccnc(C(F)(F)F)c3)c2)c1O | yes |
| CNC(=O)OCc1c(COC(=O)NC)c(-c2ccc(-c3ccccc3)cc2)n(C)c1C | no |
| O=C(NC(=O)c1c(F)cccc1F)Nc1cccc(Oc2ncc(Cl)cn2)c1 | yes |
| CC(C)CCNC(=O)c1ccc(CNC(=O)/C=C/c2cccc(Oc3ccccc3)c2)cc1 | yes |
| CCN1CCCc2cc3c(C(F)(F)F)cc(=O)oc3cc21 | yes |
| CN(c1ccc(NC(=O)Nc2c(Cl)cccc2Cl)cc1)c1ccnc(Nc2cccc(CS(C)(=O)=O)c2)n1 | no |
